Numbers sourced from patent US20180334496A1.

molecular target: T1, serum purified human Complement Factor D (human, UniProt P00746 26-253); experiment: SPR Biacore, 37 C
T1 construct: Serum purified protein flowed over the captured antibodies; also called CFD; human CFD
T1 sequence (P00746 26-253): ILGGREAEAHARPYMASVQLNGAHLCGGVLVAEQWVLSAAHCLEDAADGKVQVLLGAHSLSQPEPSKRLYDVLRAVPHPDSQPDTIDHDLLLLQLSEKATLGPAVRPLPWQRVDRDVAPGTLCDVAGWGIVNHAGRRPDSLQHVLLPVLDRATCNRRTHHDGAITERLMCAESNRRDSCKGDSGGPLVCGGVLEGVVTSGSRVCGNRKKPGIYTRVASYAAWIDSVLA
measured_parameter: koff (s⁻¹)
I only need the number, in s⁻¹, no unit after it.

Known results for binders:
- binder: "34I54I59D / 54R101V (antibody, V domains shown, KCD119 TAF variant) VH: EVQLVESGGGLVQPGGSLRLSCAASGYTFTDYYINWVRQAPGKGLEWIGDINPITGDTDYNADFKRRFTFSLDTSKSTAYLQMNSLRAEDTAVYYCTREGPSFAYWGQGTLVTVSS VL: DIQLTQSPSSLSASVGDRVTITCRSSQTIVHSNGDTYLEWYQQKPGKAPNLLIRKVSNRFSGVPSRFSGSGSGTDFTLTISSLQPEDFATYYCFQGSHVPVTFGQGTKVEIKR"
  measured_parameter: "koff"
  obs_value: 0.000264
- binder: "54I59D / 54R101V (antibody, V domains shown, KCD119 TAF variant) VH: EVQLVESGGGLVQPGGSLRLSCAASGYTFTDYYMNWVRQAPGKGLEWIGDINPITGDTDYNADFKRRFTFSLDTSKSTAYLQMNSLRAEDTAVYYCTREGPSFAYWGQGTLVTVSS VL: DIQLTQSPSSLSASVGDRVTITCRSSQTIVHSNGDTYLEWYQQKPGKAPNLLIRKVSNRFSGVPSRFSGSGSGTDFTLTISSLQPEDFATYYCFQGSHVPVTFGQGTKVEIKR"
  measured_parameter: "koff"
  obs_value: 0.000205
- binder: "31S54I59D / 54R101V (antibody, V domains shown, KCD119 TAF variant) VH: EVQLVESGGGLVQPGGSLRLSCAASGYTFTSYYMNWVRQAPGKGLEWIGDINPITGDTDYNADFKRRFTFSLDTSKSTAYLQMNSLRAEDTAVYYCTREGPSFAYWGQGTLVTVSS VL: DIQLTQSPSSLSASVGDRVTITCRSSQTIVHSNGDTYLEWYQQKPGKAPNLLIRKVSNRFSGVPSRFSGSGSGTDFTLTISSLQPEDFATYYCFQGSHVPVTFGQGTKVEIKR"
  measured_parameter: "koff"
  obs_value: 0.000227

Now consider the entry below.
So for 31S34I54I59D / 54R101V (antibody, V domains shown, KCD119 TAF variant) VH: EVQLVESGGGLVQPGGSLRLSCAASGYTFTSYYINWVRQAPGKGLEWIGDINPITGDTDYNADFKRRFTFSLDTSKSTAYLQMNSLRAEDTAVYYCTREGPSFAYWGQGTLVTVSS VL: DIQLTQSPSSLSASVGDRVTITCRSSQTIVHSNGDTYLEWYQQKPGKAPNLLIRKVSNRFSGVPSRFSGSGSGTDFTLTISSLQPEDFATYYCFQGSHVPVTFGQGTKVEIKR , the logged koff turned out to be 0.000237
